TARGET_OR_TEST_SYSTEM: OCT2 (Solute carrier family 22 member 2) (Homo sapiens, UniProt O15244)
Sequence (O15244 whole entry): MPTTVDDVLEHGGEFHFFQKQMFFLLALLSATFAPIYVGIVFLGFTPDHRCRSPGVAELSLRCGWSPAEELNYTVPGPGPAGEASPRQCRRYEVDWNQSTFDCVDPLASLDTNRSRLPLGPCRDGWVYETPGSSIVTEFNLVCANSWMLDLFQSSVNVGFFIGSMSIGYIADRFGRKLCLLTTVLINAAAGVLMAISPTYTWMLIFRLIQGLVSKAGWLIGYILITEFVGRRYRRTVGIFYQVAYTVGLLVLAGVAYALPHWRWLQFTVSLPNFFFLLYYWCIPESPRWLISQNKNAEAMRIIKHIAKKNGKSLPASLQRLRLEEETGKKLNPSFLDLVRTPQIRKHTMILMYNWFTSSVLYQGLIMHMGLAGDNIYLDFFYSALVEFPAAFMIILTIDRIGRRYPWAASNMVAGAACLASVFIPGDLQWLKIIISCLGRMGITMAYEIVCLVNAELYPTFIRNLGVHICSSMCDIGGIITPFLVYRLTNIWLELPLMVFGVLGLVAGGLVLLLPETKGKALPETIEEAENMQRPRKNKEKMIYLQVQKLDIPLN
PROCEDURE_DETAILS: TP_TRANSPORTER: inhibition of TEA uptake (TEA: 5 uM, PGE2: 1000 uM) in OCT2-expressing S2 cells
Type: functional, cell-based
Set-up: scale not given: the % may be the effect or the level left
EXPERIMENTAL_CONDITIONS: mouse, probe TEA, read-out: Activity
OUTCOME_MEASURE: activity at 1000 µM (%)

> print(dat)
                           structure.string  numeric.readout
1  CCCCC[C@H](O)/C=C/[C@H]1[C@H](O)CC(=O)[C@@H]1C/C=C\CCCC(=O)O             75.6
